Each recorded value in this set is attributed to patent US11319315B2.

Each record here notes measured pIC50.
- tested.target: human LPA1 (Homo sapiens, UniProt Q92633)
- Construct: expressed in transfected cells; host or cells: Chinese hamster ovary (CHO) cells
- Sequence (Q92633 whole entry): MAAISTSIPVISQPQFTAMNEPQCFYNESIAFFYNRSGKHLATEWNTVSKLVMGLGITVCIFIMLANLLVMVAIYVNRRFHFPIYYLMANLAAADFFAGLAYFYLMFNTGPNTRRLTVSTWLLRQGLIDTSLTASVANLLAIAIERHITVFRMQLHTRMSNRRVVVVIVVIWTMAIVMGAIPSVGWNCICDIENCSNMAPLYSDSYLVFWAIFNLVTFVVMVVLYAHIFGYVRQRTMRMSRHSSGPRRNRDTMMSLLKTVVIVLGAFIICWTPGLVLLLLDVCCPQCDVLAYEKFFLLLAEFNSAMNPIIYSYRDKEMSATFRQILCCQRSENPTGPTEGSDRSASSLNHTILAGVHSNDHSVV
- experiment.notes: LPA1 functional antagonist assay (LPA-induced calcium flux in CHO cells overexpressing human LPA1)
- Assay type: cell-based
- particulars: inhibition of calcium flux induced by 10 nM LPA, CHO cells overexpressing human LPA1; read-out: hLPA1 IC50
Where a name gives a salt, the structure may show the parent alone.
Answer as the number alone; pIC50 is minus log10 of concentration in mol/L.

As a guide, the following entries are already answered.
{"columns": ["compound", "pIC50"],
 "data": [
  ["Cc1nc(-c2nnn(C)c2CNc2noc(C3CCCO3)n2)ccc1O[C@H]1CCC[C@H](C(=O)O)C1 (mixture of isomers)", 6.66],
  ["Cc1nc(-c2nnn(C)c2Nc2noc(CC3CC3)n2)ccc1O[C@H]1CCC[C@H](C(=O)O)C1 [Example 277, bis TFA salt]", 7.48],
  ["Cc1nc(-c2nnn(C)c2Cn2cc(C3(O)CCCCC3)nn2)ccc1O[C@H]1CCC[C@H](C(=O)O)C1", 5.49]
]}

Turning now to a further record.
Need pIC50, item Cn1nnc(-c2ccc(O[C@H]3CCC[C@H](C(=O)O)C3)cn2)c1Cn1nnnc1CC1CC1
6.90
